Ref: patent US12492173B2

For each entry below, report its herbicidal action LOLMU value.
- System: Lolium multiflorum
- assay method text: Post-emergence herbicidal action, LOLMU
- Format: in vivo
- Parameters: key: % herbicidal action: 100 = plants died, 0 = like control
- assay setup: post-emergence, dosage 80 g/ha
Entry rule: numbers only, all in %.

Challenge: What herbicidal action LOLMU value was documented for this molecule, CCSCc1c(C(F)(F)F)ccc(C(=O)Nc2nnnn2CC)c1Br ?
Response given: 80

Challenge: What herbicidal action LOLMU value was documented for this molecule, Cn1nnnc1NC(=O)c1ccc(C(F)(F)F)c(C[S+](C)[O-])c1Cl (racemic) ?
Response given: 100

Challenge: What herbicidal action LOLMU value was documented for this molecule, CSCc1c(Cl)ccc(C(=O)Nc2nnnn2C)c1Cl ?
Response given: 100

Challenge: What herbicidal action LOLMU value was documented for this molecule, CCSCc1c(C(F)F)ccc(C(=O)Nc2nnnn2CC)c1Cl ?
Response given: 80

Challenge: What herbicidal action LOLMU value was documented for this molecule, CCSCc1c(C(F)(F)F)ccc(C(=O)Nc2nnnn2CC)c1Cl ?
Response given: 90

Challenge: What herbicidal action LOLMU value was documented for this molecule, CCn1nnnc1NC(=O)c1ccc(C(F)(F)F)c(C[S+](C)[O-])c1Cl (stereo not drawn) ?
Response given: 90

Challenge: What herbicidal action LOLMU value was documented for this molecule, CCSCc1c(C(F)(F)F)ccc(C(=O)Nc2nnnn2CC)c1C ?
Response given: 90

Challenge: What herbicidal action LOLMU value was documented for this molecule, CCS(=O)(=O)Cc1c(C(F)(F)F)ccc(C(=O)Nc2nnnn2C)c1Br ?
Response given: 80

Challenge: What herbicidal action LOLMU value was documented for this molecule, Cn1nnnc1NC(=O)c1ccc(C(F)(F)F)c(C[S+](C)[O-])c1Br (stereo not drawn) ?
Response given: 80

---

- System: Echinochloa crus-galli
- assay method text: Post-emergence herbicidal action, ECHCG
- Assay type: in vivo
- Set-up: key: % herbicidal action vs untreated; 100 = plants died, 0 = like control
- assay setup: post-emergence, dosage 80 g/ha
- Description: [table] 2. […] After the test plants have been left to stand in the greenhouse under optimal growth conditions for about 3 weeks, the action of the preparations is assessed visually in comparison to untreated controls (herbicidal action in percent (%): 100% activity=the plants have died, 0% activity=like control plants). […]
observed property: Herbicidal action against ECHCG
// no unit string in output, number only

Challenge: For the record CCn1nnnc1NC(=O)c1ccc(S(C)(=O)=O)c(CS(C)(=O)=O)c1Cl , what value of Herbicidal action against ECHCG is listed for Echinochloa crus-galli?
Response given: 90

Challenge: For the record CCCn1nnnc1NC(=O)c1ccc(C(F)F)c(C[S+](C)[O-])c1C (stereo not drawn) , what value of Herbicidal action against ECHCG is listed for Echinochloa crus-galli?
Response given: 80

Challenge: For the record CCCn1nnnc1NC(=O)c1ccc(C)c(CS(C)(=O)=O)c1Cl , what value of Herbicidal action against ECHCG is listed for Echinochloa crus-galli?
Response given: 90

Challenge: For the record CSCc1c(S(C)(=O)=O)ccc(C(=O)Nc2nnnn2C)c1Cl , what value of Herbicidal action against ECHCG is listed for Echinochloa crus-galli?
Response given: 100

Challenge: For the record CCCn1nnnc1NC(=O)c1ccc(C(F)F)c(CS(C)(=O)=O)c1C , what value of Herbicidal action against ECHCG is listed for Echinochloa crus-galli?
Response given: 90

Challenge: For the record CCCn1nnnc1NC(=O)c1ccc(I)c(CSC)c1Cl , what value of Herbicidal action against ECHCG is listed for Echinochloa crus-galli?
Response given: 80

Challenge: For the record CCn1nnnc1NC(=O)c1ccc(C)c(CS(C)(=O)=O)c1Cl , what value of Herbicidal action against ECHCG is listed for Echinochloa crus-galli?
Response given: 100

Challenge: For the record CCS(=O)(=O)Cc1c(C(F)F)ccc(C(=O)Nc2nnnn2C)c1S(=O)(=O)CC , what value of Herbicidal action against ECHCG is listed for Echinochloa crus-galli?
Response given: 90

Challenge: For the record CCCn1nnnc1NC(=O)c1ccc(C)c(CSC)c1Cl , what value of Herbicidal action against ECHCG is listed for Echinochloa crus-galli?
Response given: 90
